# MEASURED TARGET: BRSK2 (human)
# TEST NAME: radiometric filter-binding kinase assay
# EXPERIMENTAL CONTEXT: compound 0.1 µM
Overview of reported residual activity across a group of compounds:
Field: numeric (%). Do not append units.

Field: example entries. Status: answers known.
[
  {
    "SMILES CODE": "O=C(N[C@@H](COc1ccc2[nH]c(=O)[nH]c2c1)c1ccccc1)c1cccn(Cc2ccc(F)c(F)c2)c1=O",
    "QUANTITATIVE RESULT": 118
  },
  {
    "SMILES CODE": "O=C(O)c1ccc(-c2c[nH]c3ncc(-c4ccccc4)cc23)cc1C1CCCC1",
    "QUANTITATIVE RESULT": 86
  },
  {
    "SMILES CODE": "CN1CCN(CCOc2cc(OC3CCOCC3)c3c(Nc4c(Cl)ccc5c4OCO5)ncnc3c2)CC1",
    "QUANTITATIVE RESULT": 96
  },
  {
    "SMILES CODE": "CCn1c(-c2nonc2N)nc2cncc(CNC3CCNCC3)c21",
    "QUANTITATIVE RESULT": 96
  }
]

Attention now shifts to the item below.
QUERY: // lookup residual activity for CNc1nc(-c2ccc3c(N)n[nH]c3c2)cc(N2C[C@@H](C(=O)NC3CCCCC3)CC[C@H]2C)n1
RESULT: 110

---

# MEASURED TARGET: ABL1 (human) (UniProt P00519)
# Sequence (P00519 whole entry, looked up): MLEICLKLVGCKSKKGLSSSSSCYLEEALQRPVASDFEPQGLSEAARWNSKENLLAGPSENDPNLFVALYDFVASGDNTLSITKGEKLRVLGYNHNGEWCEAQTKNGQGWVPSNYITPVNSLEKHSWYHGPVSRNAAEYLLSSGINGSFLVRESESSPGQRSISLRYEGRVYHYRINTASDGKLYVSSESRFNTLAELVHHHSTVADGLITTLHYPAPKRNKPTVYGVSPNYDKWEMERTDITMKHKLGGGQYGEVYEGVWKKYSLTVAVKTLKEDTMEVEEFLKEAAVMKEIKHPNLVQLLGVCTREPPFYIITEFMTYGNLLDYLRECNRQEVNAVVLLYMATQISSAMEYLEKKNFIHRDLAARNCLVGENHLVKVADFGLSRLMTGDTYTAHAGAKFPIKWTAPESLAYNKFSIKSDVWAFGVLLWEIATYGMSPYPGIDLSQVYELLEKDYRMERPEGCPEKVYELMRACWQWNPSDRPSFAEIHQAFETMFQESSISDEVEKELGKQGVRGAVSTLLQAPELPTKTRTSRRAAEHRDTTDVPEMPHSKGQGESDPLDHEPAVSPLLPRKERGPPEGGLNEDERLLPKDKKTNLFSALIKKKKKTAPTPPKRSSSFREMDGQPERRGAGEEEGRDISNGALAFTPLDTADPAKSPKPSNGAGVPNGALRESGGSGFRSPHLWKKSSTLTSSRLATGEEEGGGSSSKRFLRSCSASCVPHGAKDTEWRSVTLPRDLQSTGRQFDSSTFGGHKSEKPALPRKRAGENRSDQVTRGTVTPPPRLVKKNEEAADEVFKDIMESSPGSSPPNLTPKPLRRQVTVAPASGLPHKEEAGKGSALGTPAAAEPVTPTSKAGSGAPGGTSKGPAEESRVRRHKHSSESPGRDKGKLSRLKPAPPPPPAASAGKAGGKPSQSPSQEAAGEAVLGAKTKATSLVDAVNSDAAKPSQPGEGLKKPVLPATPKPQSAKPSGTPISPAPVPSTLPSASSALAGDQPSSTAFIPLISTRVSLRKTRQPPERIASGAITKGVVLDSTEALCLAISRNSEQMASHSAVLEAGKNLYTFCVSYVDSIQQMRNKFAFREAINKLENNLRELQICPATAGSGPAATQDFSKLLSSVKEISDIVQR
# TEST NAME: radiometric filter-binding kinase assay
# EXPERIMENTAL CONTEXT: compound 10.0 µM
ENDPOINT NAME: residual activity (%)
Give the number; % is assumed, so skip it.

Consider the following illustrative entries.
[
  {
    "MOLECULE": "CC1=C(CO)C(=O)O[C@@H]([C@@H](C)[C@H]2CC[C@H]3[C@@H]4C[C@H]5O[C@]56[C@@H](O)C=CC(=O)[C@]6(C)C4CC[C@]23C)C1 (stereo not given in full)",
    "MEASURED TARGET": "ABL1 (human) (UniProt P00519)",
    "residual activity / %": 106
  },
  {
    "MOLECULE": "NC(=O)c1cc(-c2ccnc(NC3CCCCC3)c2)nc(N2CCNCC2)c1",
    "MEASURED TARGET": "ABL1 (human) (UniProt P00519)",
    "residual activity / %": 100
  },
  {
    "MOLECULE": "CCNc1nc(Nc2cc(F)c(C(=O)N3CCOCC3)cc2OC)ncc1C(F)(F)F",
    "MEASURED TARGET": "ABL1 (human) (UniProt P00519)",
    "residual activity / %": 106
  },
  {
    "MOLECULE": "COC(=O)/C=C/C(=O)OC",
    "MEASURED TARGET": "ABL1 (human) (UniProt P00519)",
    "residual activity / %": 98
  }
]

QUERY: Need residual activity, item Nc1cccc2c1CN(C1CCC(=O)NC1=O)C2=O (stereo not given)
RESULT: 101

QUERY: Look up residual activity for this molecule: Cc1nc(-c2ccc(OCC(C)C)c(C#N)c2)sc1C(=O)O
RESULT: 89

QUERY: Query: residual activity; subject: O=C(NOC[C@H](O)CO)c1ccc(F)c(F)c1Nc1ccc(I)cc1Cl
RESULT: 98

QUERY: Look up residual activity: c1ccc2c(-c3cnn4cc(-c5ccc(N6CCNCC6)cc5)cnc34)ccnc2c1
RESULT: 4

QUERY: Form field: reported residual activity of CCCCCc1ccc(/C=C/[C@H](O)[C@@H](CO)NC)cc1
RESULT: 109

QUERY: GET /values?readout=residual activity&item= Cc1ccc(=O)n(-c2ccccc2)c1
RESULT: 112

---

Catalogue of residual activity values
# MEASURED TARGET: STK11 CAB39 STRADA (human) (UniProt Q9Y376+Q7RTN6+Q15831)
# Sequence (Q15831 whole entry, looked up): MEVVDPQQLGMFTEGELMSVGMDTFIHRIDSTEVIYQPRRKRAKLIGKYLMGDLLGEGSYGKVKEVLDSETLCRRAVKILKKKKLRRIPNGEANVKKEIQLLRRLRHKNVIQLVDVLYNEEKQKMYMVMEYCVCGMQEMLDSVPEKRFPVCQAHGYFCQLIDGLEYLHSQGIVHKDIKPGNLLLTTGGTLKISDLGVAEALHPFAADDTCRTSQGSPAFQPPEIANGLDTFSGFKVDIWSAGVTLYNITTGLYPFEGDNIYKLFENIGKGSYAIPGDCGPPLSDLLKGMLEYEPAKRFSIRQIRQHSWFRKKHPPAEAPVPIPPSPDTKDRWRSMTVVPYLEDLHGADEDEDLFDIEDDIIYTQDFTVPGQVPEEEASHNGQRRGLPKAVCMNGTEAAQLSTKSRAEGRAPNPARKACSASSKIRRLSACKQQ
# Sequence (Q7RTN6 whole entry, looked up): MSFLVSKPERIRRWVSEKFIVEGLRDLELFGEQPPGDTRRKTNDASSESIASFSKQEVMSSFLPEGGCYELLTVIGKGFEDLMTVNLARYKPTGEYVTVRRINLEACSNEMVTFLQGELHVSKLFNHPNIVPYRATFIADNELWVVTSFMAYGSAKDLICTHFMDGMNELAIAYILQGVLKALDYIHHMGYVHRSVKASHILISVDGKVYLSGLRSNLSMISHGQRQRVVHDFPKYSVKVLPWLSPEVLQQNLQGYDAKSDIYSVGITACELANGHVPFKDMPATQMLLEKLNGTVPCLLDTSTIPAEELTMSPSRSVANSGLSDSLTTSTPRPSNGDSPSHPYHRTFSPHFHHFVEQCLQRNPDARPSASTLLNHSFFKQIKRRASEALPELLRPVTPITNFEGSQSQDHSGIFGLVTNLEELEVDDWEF
# Sequence (Q9Y376 whole entry, looked up): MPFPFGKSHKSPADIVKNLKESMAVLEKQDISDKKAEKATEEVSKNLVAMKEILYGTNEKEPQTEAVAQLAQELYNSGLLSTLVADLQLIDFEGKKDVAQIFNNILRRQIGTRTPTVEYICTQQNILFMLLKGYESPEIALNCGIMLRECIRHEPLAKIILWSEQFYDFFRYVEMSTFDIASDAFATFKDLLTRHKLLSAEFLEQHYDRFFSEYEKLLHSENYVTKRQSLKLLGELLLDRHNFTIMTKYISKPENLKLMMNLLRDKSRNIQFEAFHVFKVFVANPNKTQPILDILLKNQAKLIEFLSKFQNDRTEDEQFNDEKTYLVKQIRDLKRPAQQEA
# TEST NAME: radiometric filter-binding kinase assay
# EXPERIMENTAL CONTEXT: compound 10.0 µM
Kindly provide the numeric value in % only, without the unit symbol.

[
  {
    "COMPOUND": "N#Cc1c(O)c2c(-c3ccc(-c4ccccc4O)cc3)csc2[nH]c1=O",
    "QUANTITATIVE RESULT": 86
  },
  {
    "COMPOUND": "O=C(NOCC(O)CO)c1ccc(F)c(F)c1Nc1ccc(I)cc1Cl (stereo not given)",
    "QUANTITATIVE RESULT": 77
  },
  {
    "COMPOUND": "c1ccc2c(-c3cnn4cc(-c5ccc(N6CCNCC6)cc5)cnc34)ccnc2c1",
    "QUANTITATIVE RESULT": 80
  },
  {
    "COMPOUND": "NS(=O)(=O)OC[C@@H]1C[C@@H](n2ccc3c(N[C@H]4CCc5ccccc54)ncnc32)C[C@@H]1O",
    "QUANTITATIVE RESULT": 104
  }
]

QUERY: Record lookup: for STK11 CAB39 STRADA (human) (UniProt Q9Y376+Q7RTN6+Q15831), what residual activity belongs to CCn1c(-c2nonc2N)nc2cncc(CNC3CCNCC3)c21 ?
RESULT: 57

QUERY: Param readout= residual activity; system= STK11 CAB39 STRADA (human) (UniProt Q9Y376+Q7RTN6+Q15831); entry= Cc1ccc(-c2ccc3c(ccc4sc5c(c43)NC[C@@H](C)NC5=O)n2)cn1 ; returns value.
RESULT: 97

QUERY: // lookup residual activity | system=STK11 CAB39 STRADA (human) (UniProt Q9Y376+Q7RTN6+Q15831) | key= COC(=O)/C=C/C(=O)OC
RESULT: 93

QUERY: Provide value of residual activity for this record tested with STK11 CAB39 STRADA (human) (UniProt Q9Y376+Q7RTN6+Q15831): Cc1nc(-c2ccc(OCC(C)C)c(C#N)c2)sc1C(=O)O
RESULT: 85

QUERY: Item: CN1C(=O)[C@@H](Cc2c[nH]c3ccccc23)NC1=S Test system: STK11 CAB39 STRADA (human) (UniProt Q9Y376+Q7RTN6+Q15831) Read-out: residual activity Value: ?
RESULT: 110

QUERY: Can you look up residual activity on STK11 CAB39 STRADA (human) (UniProt Q9Y376+Q7RTN6+Q15831) for CC(C)(C#N)c1ccc(N2C(=O)OCc3cnc4ccc(-c5cnc6ccccc6c5)cc4c32)cc1 ?
RESULT: 85

---

# MEASURED TARGET: PIM3 (human)
# TEST NAME: radiometric filter-binding kinase assay
# EXPERIMENTAL CONTEXT: compound 1.0 µM
ENDPOINT NAME: residual activity (%)
Reply numerically in %, unit not repeated.

Worked cases, residual activity given:
[
  {
    "SMILES CODE": "O=C(NCCCNc1nc(Nc2cccc(CN3CCOCC3)c2)ncc1C1CC1)C1CCC1",
    "residual activity, %": 111
  },
  {
    "SMILES CODE": "Cc1cc(NC(=O)c2cccc(NC(=O)/C=C/CN(C)C)c2)ccc1Nc1nccc(-c2cccnc2)n1",
    "residual activity, %": 83
  },
  {
    "SMILES CODE": "Cc1ccc(=O)n(-c2ccccc2)c1",
    "residual activity, %": 111
  },
  {
    "SMILES CODE": "COc1cc2ncn(-c3cc(OCc4ccccc4S(C)(=O)=O)c(C#N)s3)c2cc1OC",
    "residual activity, %": 90
  }
]

# next compound below
QUERY: Requested read-out: residual activity. Entry: CCNc1nc(Nc2cc(F)c(C(=O)N3CCOCC3)cc2OC)ncc1C(F)(F)F
RESULT: 105

---

# MEASURED TARGET: HIPK1 (human)
# TEST NAME: radiometric filter-binding kinase assay
# EXPERIMENTAL CONTEXT: compound 10.0 µM
Listed here: items and their measured residual activity.
Hi! Could you send only the number? It should be in %, unit omitted.

// below: answered compounds
[
  {
    "COMPOUND": "CC1=C(CO)C(=O)O[C@@H]([C@@H](C)[C@H]2CC[C@H]3[C@@H]4C[C@H]5O[C@]56[C@@H](O)C=CC(=O)[C@]6(C)C4CC[C@]23C)C1 (some centres not stated)",
    "RESULT UNITS": "%",
    "residual activity": 101
  },
  {
    "COMPOUND": "O=C(NOCC(O)CO)c1ccc(F)c(F)c1Nc1ccc(I)cc1Cl (configuration not stated)",
    "RESULT UNITS": "%",
    "residual activity": 85
  },
  {
    "COMPOUND": "N#Cc1c(O)c2c(-c3ccc(-c4ccccc4O)cc3)csc2[nH]c1=O",
    "RESULT UNITS": "%",
    "residual activity": 74
  },
  {
    "COMPOUND": "NC(=O)c1cc(-c2ccnc(NC3CCCCC3)c2)nc(N2CCNCC2)c1",
    "RESULT UNITS": "%",
    "residual activity": 106
  },
  {
    "COMPOUND": "N#Cc1c(C2CCNCC2)cc(-c2c(O)cccc2OCC2CC2)nc1N",
    "RESULT UNITS": "%",
    "residual activity": 62
  }
]

Consider the record given below.
QUERY: # get_value(readout='residual activity', item= COc1cc2ncn(-c3cc(OCc4ccccc4S(C)(=O)=O)c(C#N)s3)c2cc1OC )
RESULT: 58
